Entry source: patent US20220348620A1

Target: T1, recombinant full length human VDAC1 (hVDAC1) (human, UniProt P21796 1-283)
T1 construct: domain: full length; also called human recombinant VDAC; recombinant VDAC1
T1 sequence (P21796 whole entry): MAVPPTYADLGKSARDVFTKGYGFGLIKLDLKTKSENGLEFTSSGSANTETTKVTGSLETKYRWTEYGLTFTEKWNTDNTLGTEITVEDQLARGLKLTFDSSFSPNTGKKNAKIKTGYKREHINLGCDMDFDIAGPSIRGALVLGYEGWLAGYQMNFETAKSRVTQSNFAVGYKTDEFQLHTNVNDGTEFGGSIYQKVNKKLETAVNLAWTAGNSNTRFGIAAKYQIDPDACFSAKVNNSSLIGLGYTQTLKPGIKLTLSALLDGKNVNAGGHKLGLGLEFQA
Test: isothermal titration calorimetry, 100 µM peptide injected into 10 µM hVDAC1, 20 °C
pKd: −log10 of the molar value.

[
  {
    "binder": "SARGILSLIQSSTRRAYQQIL (Plain synthetic peptide (not the cell-permeable form) as used in ITC; also called WT MFF peptide #8-11; MFF (L) peptide #8-11) [MFF peptide #8-11 (Ser223-Leu243 of MFF1), wild type]",
    "pKd": "~4.92"
  }
]
